# Assay system: CK1epsilon (Homo sapiens)
# Sequence (P49674 whole entry): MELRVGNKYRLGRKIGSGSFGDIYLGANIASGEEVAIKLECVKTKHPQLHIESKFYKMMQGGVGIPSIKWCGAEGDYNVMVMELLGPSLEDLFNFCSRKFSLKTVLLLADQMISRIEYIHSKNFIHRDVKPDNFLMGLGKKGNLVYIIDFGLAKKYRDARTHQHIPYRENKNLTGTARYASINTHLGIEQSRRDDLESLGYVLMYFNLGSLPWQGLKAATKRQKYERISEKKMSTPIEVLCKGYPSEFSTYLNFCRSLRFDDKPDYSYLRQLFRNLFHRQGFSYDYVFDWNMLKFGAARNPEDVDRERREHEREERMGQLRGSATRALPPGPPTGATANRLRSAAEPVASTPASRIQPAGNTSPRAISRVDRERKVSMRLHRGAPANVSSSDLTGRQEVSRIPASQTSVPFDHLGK
Measure: IC50 (µM)
Write down the numeric answer in µM and omit the unit.

# IC50 lookup, item CC(C)Oc1ccc(-c2nn([C@@H](C)c3nc4ncc(Br)c(N(C)C)c4c(=O)n3-c3ccccc3)c3ncnc(N)c23)cc1F [CUX-0404A] 3.21

The measured values listed here are drawn from patent US10882863B2.
